TARGET_ENTITY: Interleukin-5 (Mus musculus)
Sequence (P04401 whole entry): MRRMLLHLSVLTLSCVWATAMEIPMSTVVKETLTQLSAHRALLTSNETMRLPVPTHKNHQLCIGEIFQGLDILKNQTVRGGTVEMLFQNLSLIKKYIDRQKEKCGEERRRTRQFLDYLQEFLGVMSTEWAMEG
ASSAY_INFO: Inhibition of interleukin-5 in mouse Y16 cells
PROPERTY_MEASURED: pIC50
# pIC50: negative log10 of molar concentration; output just the value

These solved cases illustrate the format of a correct answer.
Give me measured pIC50, please, for this compound: O=c1c(CNc2ccc(O)cc2)coc2cccc(OCC3CCCCC3)c12
4.56

Give me measured pIC50, please, for this compound: O=c1c(CNCc2ccc(O)cc2)coc2cccc(OCC3CCCCC3)c12
4.55

Give me measured pIC50, please, for this compound: O=c1c(CNC(CO)CC2CCCCC2)coc2cccc(OCC3CCCCC3)c12 (stereo unspecified)
4.76

Give me measured pIC50, please, for this compound: CC(C)(CO)NCc1coc2cccc(OCC3CCCCC3)c2c1=O
4.58

Give me measured pIC50, please, for this compound: O=c1c(CNC(CO)c2ccccc2)coc2cccc(OCC3CCCCC3)c12 (stereo unspecified)
4.73

Give me measured pIC50, please, for this compound: O=c1c(CNC(CO)Cc2ccccc2)coc2cccc(OCC3CCCCC3)c12 (stereo unspecified)
4.59

# evaluate next
Give me measured pIC50, please, for this compound: CC(C)(C)C(CO)NCc1coc2cccc(OCC3CCCCC3)c2c1=O (stereo unspecified)
4.58

Origin of measurements: ChEMBL document CHEMBL1177657
